Cited source: PubChem BioAssay (NCI)

Method summary: NCI Yeast Anticancer Drug Screen. Data for the mlh1 rad18 strain (AID 175)
Settings: S. cerevisiae mlh1 rad18 strain growth inhibition; at 50.0 µM
This is part of a sample that, as a whole, favours compounds with a hit. Of some 79,000 tested, about 15% had one in any assay. Activity calls are given as the source filed them. No stated cut-off is given here; in the data, active means growth inhibition above about 70%; inactive means the rest.
# output must be one of active, inactive

Completed entries (count: 3):
O=C(O)c1ccc2cc(Cl)c3ccccc3c2c1 ... active
CCCCS/C(=C(/C#N)C(N)=O)c1cc2c([nH]1)CCCC2 ... inactive
CC(C(=O)N1C(=O)N(C(=O)C(C)C(O)c2ccccc2)C2CCCCC21)C(O)c1ccccc1 (stereo unspecified) ... active

Incoming: GET /call?item= COc1ccccc1/C=C\C(=O)C1COCN1 (stereo unspecified) returns the recorded outcome of this test.
Outgoing: active

Incoming: GET /call?item= O=C1CSC(c2ccccc2)N1c1ccc(-c2ccc(-n3c(-c4ccccc4)nc4ccccc4c3=O)cc2)cc1 (stereo unspecified) returns the recorded outcome of this test.
Outgoing: active

Incoming: GET /call?item= COc1ccc(C(C)c2cc3c(cc2OC(C)O)OCO3)cc1 (stereo unspecified) returns the recorded outcome of this test.
Outgoing: inactive

Incoming: GET /call?item= `COc1cc(C(=O)C=O)cc(OC)c1OC` returns the recorded outcome of this test.
Outgoing: inactive

Incoming: GET /call?item= `O=C1c2cccc3cccc(c23)C(=O)N1CCNCCN1C(=O)c2cccc3cccc(c23)C1=O` returns the recorded outcome of this test.
Outgoing: inactive

Incoming: GET /call?item= CC1C(c2ccccc2)SC(=N)N1C (stereo unspecified) returns the recorded outcome of this test.
Outgoing: inactive

Incoming: GET /call?item= `O=C(CCSC1=NCCCN1)c1ccc(F)cc1` returns the recorded outcome of this test.
Outgoing: inactive

Incoming: GET /call?item= `CC(C)=CCc1c2c(c(O)c3c(=O)c(-c4ccc(O)c(O)c4)coc13)C=CC(C)(C)O2` returns the recorded outcome of this test.
Outgoing: active

###

Method summary: NCI Yeast Anticancer Drug Screen. Data for the sgs1 strain (AID 173);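 further: 0% = growth of vehicle-only control cultures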
Settings: S. cerevisiae sgs1 mutant, at 11.0 µM, active compounds read high
About 79,000 compounds went through this panel and 15% of them were active in at least one assay; those are over-represented in the sample as a whole.
Outcome label depends on growth inhibition relative to 40%: at/above gives MET, below gives NOT MET.

CCCCS(=O)(=O)Nc1ccc(Nc2c3ccccc3nc3ccccc23)c(OC)c1 ... NOT MET

Incoming: Does the compound `Cc1cc(C)c2[s+]snc2c1` have recorded growth inhibition that is 40% or more?
Outgoing: NOT MET

Incoming: Does the compound `C[n+]1c(/C=C/c2ccc(/C=N/NC(=O)c3ccc(C(=O)N/N=C/c4ccc(/C=C/c5cn6ccccc6[n+]5C)cc4)cc3)cc2)cn2ccccc21` have recorded growth inhibition that is 40% or more?
Outgoing: MET

Incoming: Does the compound `COc1ccc(/C=C2\SC(=S)N(/C=C3\C(=O)N(c4ccccc4)N=C3C)C2=O)cc1OC` have recorded growth inhibition that is 40% or more?
Outgoing: MET

Incoming: Does the compound O=C1CC(C(O)(C(F)(F)F)C(F)(F)Cl)CCC1C(O)(C(F)(F)F)C(F)(F)Cl (stereo not given) have recorded growth inhibition that is 40% or more?
Outgoing: MET

###

Method summary: NCI Yeast Anticancer Drug Screen. Data for the mec2-1 strain (AID 157)
Settings: S. cerevisiae mec2-1 strain, at 3.7 µM, active compounds read high
About 79,000 compounds went through this panel and 15% of them were active in at least one assay; those are over-represented in the sample as a whole.
Outcome label depends on growth inhibition relative to 10%: at/above gives 1.0, below gives 0.0.

Completed entries (count: 3):
OC1(C#CI)CCCCC1 ... 0.0
O=C(NCCCCN(CCCNC(=O)C(F)(F)F)Cc1ccccc1)C(F)(F)F ... 1.0
CO[C@@]1([C@@H](Cl)c2ccccc2)C(=O)N(C)/C(=C\c2ccccc2)C(=O)N1C ... 0.0

Incoming: Does the compound O=C1NC(c2cccc(OCc3ccccc3)c2)Nc2ccccc21 (stereo not given) have recorded growth inhibition that is 10% or more?
Outgoing: 1.0

Incoming: Does the compound `S=C1N(c2ccc(Cl)cc2)C2=C(N=Nc3ccccc3)C(=Nc3ccccc3S2)N1c1ccccn1` have recorded growth inhibition that is 10% or more?
Outgoing: 1.0

Incoming: Does the compound `CC(C)OC(=O)NNc1c(Cl)cc(Cl)cc1Cl` have recorded growth inhibition that is 10% or more?
Outgoing: 0.0
